Assay comment: RAM pathway signaling blockade in S. cerevisiae – dose response (AID 1307);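 note: 0% = DMSO vehicle wells and 100% = 10 µM 1-NA-PP1 control; higher inhibition means more yeast growth since RAM block rescues cells from 5-FOA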
Run parameters: S. cerevisiae RAM network URA3 reporter, 5-FOA growth OD615, active compounds read high, yeast express analog-sensitive mutant Cbk1 kinase; at 100 µM unless noted
Fewer than 10 of roughly 1,200 compounds were called active. A selection follows. Entries with a potency or affinity are not part of this list.
max inhibition overview
Observed property: max inhibition

CCOc1ccc2nc(SCC(=O)c3ccccc3)sc2c1    3% [at 0.196 µM] (inactive)
Fc1ccc(CSc2nnc(Cc3sc(-c4ccccc4)nc3-c3ccccc3)o2)cc1    5.66% (inactive)
CCOC(=O)c1c(C)[nH]c(C(=O)C(C)Sc2ccc(Cl)cc2)c1C (configuration not stated)    2.41% [at 12.5 µM] (inactive)
C=C(C)CNC(=S)Nc1nc2c(cc1C(=O)OCC)CCCC2    2.44% [at 25 µM] (inactive)
COc1ccc2c(C)cc(SCC(=O)c3ccc4c(c3)OCO4)nc2c1    4.01% (inactive)
COc1ccc(-c2ccc(-c3noc(C4CCCCC4)n3)c(OC)n2)cc1    3.89% [at 50 µM] (inactive)
CC(C)Oc1ccccc1OCCCCn1cnc2ccccc2c1=O    2.35% [at 6.25 µM] (inactive)
Clc1ccc(CSc2nnc(/C=C/c3ccccc3)o2)cc1    2.78% [at 25 µM] (inactive)
O=C(Nc1ccccc1Cl)c1cccc(COc2cc(Cl)ccc2Cl)c1    2.59% (inactive)
CC(C)=CCC/C(C)=C/Cc1c(O)ccc(C(=O)/C=C/c2ccc(O)cc2)c1O    5.39% (inactive)
Cc1c(NC(=S)NC(=O)Cc2ccccc2)cccc1C(=O)O    2.43% [at 0.196 µM] (inactive)
COc1cc(/C=N/Nc2ccc(Cl)cc2)ccc1OC(=O)c1cccs1    2.6% [at 0.391 µM] (inactive)
Cc1cc2c(C)ccc(C)c2nc1SCC(=O)c1cccs1    5.59% [at 25 µM] (inactive)
Cc1ccc(/C=C/c2ccc(=O)n(Cc3ccccc3Cl)n2)cc1    3.92% [at 3.125 µM] (inactive)
O=C(C(Sc1ccccc1)c1ccccc1)N1CCN(c2ccccc2)CC1 (configuration not stated)    2.99% [at 3.125 µM] (inactive)
CCOC(=O)c1sc(NC(=O)CCCn2nc([N+](=O)[O-])cc2C)c(C(=O)OCC)c1C    4.45% [at 0.782 µM] (inactive)
COc1ccc(CN(CCC(c2ccccc2)c2ccco2)C(=O)c2ccco2)cc1 (configuration not stated)    4.81% [at 6.25 µM] (inactive)
CCOC(=O)C1=C(c2ccccc2)N=c2s/c(=C\c3cc(OC)c(OC)c(OC)c3)c(=O)n2C1c1cccs1 (configuration not stated)    14.2% (inactive)
CCC(=O)NC(=S)Nc1ccc(NC(=S)NC(=O)c2ccccc2)cc1    5.34% [at 50 µM] (inactive)
COc1cc(NC(=O)c2ccc3c(c2)OCO3)c2ncccc2c1    4.22% (inactive)
Cc1ccc(NC2=Nc3ccccc3N3C2=Nc2c(c(C)nn2-c2ccccc2)C3c2ccc(O)c(O)c2)cc1 (configuration not stated)    6.97% (inactive)
COc1ccc(OC)c(NC(=O)C(Sc2ccccc2)c2ccccc2)c1 (configuration not stated)    4.44% [at 50 µM] (inactive)

###

Assay comment: RAM pathway signaling blockade in S. cerevisiae – dose response (AID 1307)
Run parameters: S. cerevisiae RAM network URA3 reporter, 5-FOA growth OD615, active compounds read high, yeast express analog-sensitive mutant Cbk1 kinase; at 100 µM unless noted
Fewer than 10 of roughly 1,200 compounds were called active. Only a sample is shown. Potency and affinity values are given separately.
# max inhibition per entry
Observed property: max inhibition

Brc1ccc(CSc2nnc(Cc3c[nH]c4ccccc34)o2)cc1    3.66% (inactive)
CCOC(=O)C(C)Sc1nc2c(c(-c3cccs3)c1C#N)CCC2 (stereo not given)    3.89% [at 50 µM] (inactive)
CCOC(=O)c1c(C)[nH]c(C)c1C(=O)COC(=O)/C=C/c1ccc(Cl)cc1    2.07% [at 0.391 µM] (inactive)
COc1cccc(/C=C(/C(=O)OCC(=O)NC2CCCC(C)C2C)c2ccccc2)c1 (stereo not given)    7.65% [at 50 µM] (inactive)
CCOC(=O)c1c(NC(=O)CSc2nnc(-c3ccco3)o2)sc(C)c1C    4.63% [at 0.391 µM] (inactive)
Cc1ccccc1OCC(=O)OCC(=O)c1ccc(OCc2ccccc2)cc1    4.85% [at 50 µM] (inactive)
O=C(c1cccs1)n1nc(-c2ccc(Cl)cc2)nc1NCc1ccco1    2.48% (inactive)
COc1ccc(-c2ccc(-c3noc(-c4cccc(OC)c4)n3)c(OC)n2)cc1    4.12% (inactive)
O=C(Nc1ccccc1)C1=C[C@H](C2CCCCC2)C[C@H](OCc2ccc(CO)cc2)O1    4.12% (inactive)
CCCNC(=O)c1ccccc1NC(=O)c1ccc(CSc2ccccc2)cc1    5.46% [at 50 µM] (inactive)

###

Assay comment: RAM pathway signaling blockade in S. cerevisiae – dose response (AID 1307);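 note: 0% = DMSO vehicle wells and 100% = 10 µM 1-NA-PP1 control; higher inhibition means more yeast growth since RAM block rescues cells from 5-FOA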
Run parameters: S. cerevisiae RAM network URA3 reporter, 5-FOA growth OD615, active compounds read high, yeast express analog-sensitive mutant Cbk1 kinase; at 100 µM unless noted
Fewer than 10 of roughly 1,200 compounds were called active. A selection follows. Results with a measured potency or affinity are listed apart.
max inhibition for assorted molecules
Observed property: max inhibition

O=C(COC(=O)CCCNC(=O)c1ccc(Cl)cc1)Nc1cc(Cl)c(Cl)cc1Cl    3.97% [at 50 µM] (inactive)
CCOC(=O)C1CCN(S(=O)(=O)C(F)(F)c2nc3ccccc3s2)CC1    2.1% [at 0.391 µM] (inactive)
CCOC(=O)c1cnc(SC)nc1Oc1cccc(NC(=O)c2ccc(C)cc2)c1    5.83% [at 50 µM] (inactive)
COc1ccc(C(=O)/C=C/c2ccc(OC)c(COc3ccccc3F)c2)cc1    3.26% [at 12.5 µM] (inactive)

###

Assay comment: RAM pathway signaling blockade in S. cerevisiae – dose response (AID 1307);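 note: 0% = DMSO vehicle wells and 100% = 10 µM 1-NA-PP1 control; higher inhibition means more yeast growth since RAM block rescues cells from 5-FOA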
Run parameters: S. cerevisiae RAM network URA3 reporter, 5-FOA growth OD615, active compounds read high, yeast express analog-sensitive mutant Cbk1 kinase; at 100 µM unless noted
The campaign covered roughly 1,200 compounds. Fewer than 10 were called active. Only a sample is shown. Measured potencies and affinities stand elsewhere.
compounds and their reported max inhibition
Observed property: max inhibition

COc1ccc(Br)cc1C(=O)Nc1ccccc1-c1ccccc1    6.2% [at 50 µM] (inactive)
O=C(CN(Cc1cccs1)C(=O)CSc1nnc(COc2ccccc2)o1)NC1CCCC1    3.76% (inactive)
CC(CCc1ccccc1)NC(=O)CNC(=S)N(Cc1cccs1)C1CCCC1 (stereo not given)    3.28% (inactive)
CCOC(=O)/C(=C/c1ccc(N2CCC(c3ccccc3)=N2)cc1)C(C)=O    3.75% (inactive)
COc1cccc(CN(Cc2ccccc2F)S(=O)(=O)c2ccc(S(=O)(=O)NCc3ccccc3)cc2)c1    4.33% (inactive)
CCCCC(=O)Nc1ccccc1C(=O)OCC(=O)c1ccc2c(c1)OCCO2    2.31% [at 0.196 µM] (inactive)
COC(=O)c1cc(=O)n(CCc2ccccc2)c(=Nc2ccc(F)cc2)s1    4.08% [at 50 µM] (inactive)
CCOC(=O)N1CCC(N(CCN(C)C)C(=S)Nc2cccc(SC)c2)CC1    2.41% [at 0.782 µM] (inactive)
CCOC(=O)c1cccc(NC(=O)CSc2nnc(COc3ccccc3C)o2)c1    2.04% [at 50 µM] (inactive)
CCCC(CCC)=NNc1ccc(S(=O)(=O)Nc2ccccc2OC)cc1[N+](=O)[O-]    3.78% [at 0.391 µM] (inactive)

###

Assay comment: RAM pathway signaling blockade in S. cerevisiae – dose response (AID 1307);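 note: 0% = DMSO vehicle wells and 100% = 10 µM 1-NA-PP1 control; higher inhibition means more yeast growth since RAM block rescues cells from 5-FOA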
Run parameters: S. cerevisiae RAM network URA3 reporter, 5-FOA growth OD615, active compounds read high, yeast express analog-sensitive mutant Cbk1 kinase; at 100 µM unless noted
The whole screen tested about 1,200 compounds, of which fewer than 10 were called active. A selection follows. Measured potencies and affinities stand elsewhere.
Catalogue of molecules with associated max inhibition
Observed property: max inhibition

O=C(CCC(=O)c1ccc(Oc2ccccc2)cc1)Nc1cccc(Cl)c1Cl    3.23% [at 25 µM] (inactive)
CC1(C)CC(C(CCN(Cc2ccccc2)C(=O)c2ccco2)c2ccc(F)cc2)CCO1 (stereo not given)    4.56% [at 50 µM] (inactive)
Cc1ccc(-c2csc(N(CC3CCCO3)C(=O)c3ccco3)n2)cc1 (stereo not given)    1.93% [at 12.5 µM] (inactive)
O=C(Cn1cc(C(=O)c2ccco2)c2ccccc21)NC1CCCCC1    3.76% [at 0.391 µM] (inactive)
CN(C)c1nc(SCCOC(=O)COc2ccc(Cl)cc2Cl)nc(N(C)C)n1    1.44% [at 0.782 µM] (inactive)
Cc1ccc(S(=O)(=O)N2CCC(=O)N(C(COCc3cccc(C(F)(F)F)c3)C(C)C)CC2)cc1 (stereo not given)    2.65% [at 0.782 µM] (inactive)
C=CCO/N=C(/C)c1c(O)c(CC)c(-c2ccccc2)n(-c2ccccc2)c1=O    2.56% [at 0.391 µM] (inactive)
CCOC(=O)c1cc(C#N)c(Oc2cccc(C(F)(F)F)c2)nc1-c1ccccc1    2.36% (inactive)
C=CCOc1c(Br)cc(CNc2ccc(NC(=O)C(C)C)c(OC)c2)cc1OCC    2.15% [at 3.125 µM] (inactive)
COc1ccccc1-n1c(COc2ccccc2-c2ccccc2)nnc1SCC(=O)c1c(N)n(C)c(=O)n(C)c1=O    11.9% (inactive)
